Molecular target: Dihydroorotate dehydrogenase (fumarate) (Leishmania major, UniProt Q4QEW7)
Experiment: Inhibition of recombinant oligo-histidine-tagged Leishmania major DHODH expressed in Escherichia coli BL21(DE3) cells using DHO as substrate measured after 60 secs
Conditions: read-out: IC50
Parameter: log10 of IC50. Scope: all listed entries.
// units: µM (pre-log); metric: IC50; scale: log10

Sample answers from the record:
> print(dat)
                                   molecule  measured.attribute  experimental.result
1  C=C1C(=O)O[C@@H]2[C@H]3C(C)=CC(=O)C3=C(C)C[C@@H](OC(=O)/C(C)=C/C)[C@@H]12       log10 of IC50                 1.43
2  C=C1C(=O)O[C@@H]2/C=C(/CO)C3=CC(=O)[C@@](C)(C[C@@H](OC(=O)/C(C)=C\C)[C@@H]12)O3       log10 of IC50                 2.81

Incoming: Which log10 of IC50 is listed for COc1ccc(/C=C/C(=O)NC2CCCN2C(=N)N)cc1O (stereo unspecified) ?
Outgoing: 2.79

Incoming: // same read-out, input: C=C(C)C(=O)O[C@@H]1C[C@@](C)(O)[C@@H]2C(=O)C=C(C)[C@@H]2[C@H]2OC(=O)C(=C)[C@@H]21
Outgoing: 2.23

Incoming: // same read-out, input: CC[C@@H](C)[C@@]1(O)O[C@H]2C[C@@]3(C)OC(=CC3=O)/C(CO)=C\[C@H]3OC(=O)[C@@]1(C)[C@H]23
Outgoing: 2.99

Incoming: // same read-out, input: C=C1C[C@@]23CC[C@H]4[C@@](C)(CCC[C@@]4(C)C(=O)O)[C@@H]2CC[C@@H]1C3 [KAURENOIC ACID]
Outgoing: 1.50

Incoming: // same read-out, input: Oc1cc(O)c2c(c1)O[C@H](c1ccc(O)c(O)c1)[C@@H](O)C2 [CIANIDANOL]
Outgoing: 1.99

Incoming: // same read-out, input: C=C1C(=O)O[C@@H]2/C=C(/C)C(=O)[C@@H]3O[C@H]3[C@](C)(O)C[C@@H](OC(=O)C(C)C)[C@@H]12
Outgoing: 2.01

Incoming: // same read-out, input: O=C(O)c1ccc(O)c(O)c1 [PROTOCATECHUIC ACID]
Outgoing: 2.96

Incoming: // same read-out, input: O=C(/C=C/c1ccc(O)c(O)c1)O[C@@H]1[C@H](O)C[C@@](O)(C(=O)O)C[C@H]1OC(=O)/C=C/c1ccc(O)c(O)c1
Outgoing: 2.81

Incoming: // same read-out, input: O=C(O)/C=C/c1ccccc1O [O-COUMARIC ACID]
Outgoing: 2.91

Incoming: // same read-out, input: O=C(/C=C/c1ccc(O)c(O)c1)O[C@H]1[C@H](O)C[C@](O)(C(=O)O)C[C@H]1OC(=O)/C=C/c1ccc(O)c(O)c1
Outgoing: 1.86

====

Molecular target: Dihydroorotate dehydrogenase (fumarate) (Leishmania major) (UniProt Q4QEW7)
Experiment: Binding affinity to Leishmania major DHODH assessed as change in melting temperature at 1000 uM by differential scanning fluorimetry-based ThermoFMN assay
Binary classification by ΔTm, with -0.6 °C as an inclusive lower bound for 1 (yes); all other cases are 0 (no).

> print(dat)
                                   compound  classification
1  C=C(C)C(=O)O[C@H]1C[C@@]2(C)OC(=CC2=O)[C@@H](C)C[C@H]2OC(=O)C(=C)[C@H]12         1 (yes)
2  CC(=O)OCC1=C2[C@@H](OC(C)=O)C[C@@](C)(OC(C)=O)C(=O)CC[C@@]3(C)O[C@@H]3[C@H]2OC1=O          0 (no)

Incoming: Threshold query (ΔTm >= -0.6 °C) on C[C@@H]1CC[C@H]2[C@@H](C)C(=O)O[C@@H]3O[C@@]4(C)CC[C@@H]1[C@]32OO4
Outgoing: 1 (yes)

Incoming: // same read-out, input: C=C1C(=O)O[C@@H]2C[C@H](C)[C@@]3(O)C[C@H](O)[C@@](C)(C[C@@H](OC(=O)C(C)C)[C@@H]12)O3
Outgoing: 1 (yes)

Incoming: // same read-out, input: C=C1C(=O)O[C@@H]2[C@H]3C(C)=CC(=O)C3=C(C)C[C@@H](OC(=O)[C@]3(C)O[C@@H]3C)[C@@H]12
Outgoing: 0 (no)

Incoming: // same read-out, input: C=C(C)C(=O)O[C@H]1C[C@@]2(C)OC(=CC2=O)/C(CO)=C\[C@H]2OC(=O)C(=C)[C@H]12 [GOIAZENSOLIDE]
Outgoing: 0 (no)

====

Biological target: Dihydroorotate dehydrogenase (fumarate) (Leishmania major, UniProt Q4QEW7)
Sequence (Q4QEW7 whole entry): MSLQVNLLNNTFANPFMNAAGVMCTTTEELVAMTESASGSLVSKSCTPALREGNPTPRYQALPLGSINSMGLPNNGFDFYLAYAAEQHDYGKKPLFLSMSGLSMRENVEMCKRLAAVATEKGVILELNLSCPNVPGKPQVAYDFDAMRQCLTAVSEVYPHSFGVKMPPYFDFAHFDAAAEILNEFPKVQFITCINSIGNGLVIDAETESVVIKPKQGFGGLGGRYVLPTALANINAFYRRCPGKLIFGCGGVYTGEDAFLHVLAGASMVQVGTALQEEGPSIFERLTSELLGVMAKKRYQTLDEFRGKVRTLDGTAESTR
Assay: Inhibition of recombinant oligo-histidine-tagged Leishmania major DHODH expressed in Escherichia coli BL21(DE3) cells using DHO as substrate measured after 60 secs
Conditions: read-out: IC50
Parameter: pIC50. Scope: all listed entries.
Quick note: pIC50 means taking -log10 of the concentration in moles per liter.

Sample answers from the record:
compound	target_under_test	pIC50
O=c1cc(-c2ccc(O)cc2)oc2cc(O[C@@H]3O[C@H](CO)[C@@H](O)[C@H](O)[C@H]3O)cc(O)c12 [APIGETRIN]	Dihydroorotate dehydrogenase (fumarate) (Leishmania major, UniProt Q4QEW7)	3.98
CC[C@H]1CN2CCc3cc(OC)c(OC)cc3[C@@H]2C[C@@H]1C[C@H]1NCCc2cc(OC)c(OC)cc21 [EMETINE]	Dihydroorotate dehydrogenase (fumarate) (Leishmania major, UniProt Q4QEW7)	2.97
COc1ccc(-c2oc3cc(O)cc(O)c3c(=O)c2O)cc1O [TAMARIXETIN]	Dihydroorotate dehydrogenase (fumarate) (Leishmania major, UniProt Q4QEW7)	4.03
C=C1C(=O)O[C@@H]2/C=C(/C)C(=O)/C=C/[C@](C)(O)C[C@@H](OC(=O)C(C)C)[C@@H]12 [TAGITININ C]	Dihydroorotate dehydrogenase (fumarate) (Leishmania major, UniProt Q4QEW7)	3.37
C[C@@H]1O[C@@H](OC[C@H]2O[C@@H](Oc3c(-c4ccc(O)c(O)c4)oc4cc(O)cc(O)c4c3=O)[C@H](O)[C@@H](O)[C@@H]2O)[C@H](O)[C@H](O)[C@H]1O [RUTIN]	Dihydroorotate dehydrogenase (fumarate) (Leishmania major, UniProt Q4QEW7)	2.82

Incoming: Which pIC50 is listed for O=c1c(O)c(-c2ccc(O)cc2)oc2cc(O)cc(O)c12 [KAEMPFEROL] ?
Outgoing: 3.41

Incoming: // same read-out, input: C[C@@H]1CC[C@H]2[C@@H](C)C(=O)O[C@@H]3O[C@@]4(C)CC[C@@H]1[C@]32OO4 [ARTEMISININ]
Outgoing: 3.76

Incoming: // same read-out, input: C=C1CC[C@H]2[C@@](C)(CCC[C@@]2(C)C(=O)O)[C@@H]1CC/C(C)=C/C(=O)O
Outgoing: 3.15

Incoming: // same read-out, input: CC[C@H](CC[C@H](C)[C@H]1CC[C@H]2[C@@H]3CC=C4C[C@@H](O)CC[C@]4(C)[C@H]3CC[C@]12C)C(C)C
Outgoing: 3.38

Incoming: // same read-out, input: C=C1C(=O)O[C@@H]2C[C@H](C)[C@@]3(O)C[C@H](O)[C@@](C)(C[C@@H](OC(=O)C(C)C)[C@@H]12)O3 [TAGITININ A]
Outgoing: 3.10

====

Test system: Trypanosoma cruzi
Experiment: Antitrypanosomal activity against Trypanosoma cruzi Tulahuen C2C4 trypomastigotes infected in rat skeletal myoblasts L-6 cells after 96 hrs by CPRG/Nonidet reagent based spectrophotometric method
Format: functional, organism-based
Settings: Tulahuen C2C4, L6, 96 h
Returns the class for an entry based on its IC50. Class ranges: I (below 70 µM), II (70 µM to below 200 µM), III (200 µM or more)

Would you please look over these solved cases?
molecule	target_under_test	classification
O=c1c(O)c(-c2ccccc2)oc2cc(O)cc(O)c12	Trypanosoma cruzi	II
C[C@@H]1O[C@@H](OC[C@H]2O[C@@H](Oc3c(-c4ccc(O)c(O)c4)oc4cc(O)cc(O)c4c3=O)[C@H](O)[C@@H](O)[C@@H]2O)[C@H](O)[C@H](O)[C@H]1O	Trypanosoma cruzi	I

Attention now shifts to the item below.
Incoming: Returns: class label. Input: COc1cc(/C=C/C(=O)O)ccc1O [FERULATE]
Outgoing: II
